We begin with a simple list: items and their reported activation.
- measuredOn: ACKR4 (Homo sapiens)
- Sequence (Q9NPB9 1-350): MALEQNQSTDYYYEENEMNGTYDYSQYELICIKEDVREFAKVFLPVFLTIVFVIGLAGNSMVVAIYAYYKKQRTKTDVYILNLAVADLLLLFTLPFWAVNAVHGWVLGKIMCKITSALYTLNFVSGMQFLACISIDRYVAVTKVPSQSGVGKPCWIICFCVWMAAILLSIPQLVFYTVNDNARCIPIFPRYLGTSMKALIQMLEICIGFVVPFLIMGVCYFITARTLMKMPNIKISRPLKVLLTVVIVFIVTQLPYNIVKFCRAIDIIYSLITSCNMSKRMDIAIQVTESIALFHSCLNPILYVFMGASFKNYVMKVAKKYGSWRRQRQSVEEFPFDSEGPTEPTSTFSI
- measurementProtocol: Figure S2a opioid peptide screen on chemokine receptors
- Parameters: dose or concentration left out as unconfirmed
- condition: read-out: ACKR4 activity, ctrl+ = 100, Figure S2a; replicate 2
Report as a plain number; the unit % is understood.

Example cases with answers are listed next.
| moleculeSmiles | measuredOn | unitTag | activation |
| --- | --- | --- | --- |
| CC[C@H](C)[C@H](NC(=O)[C@H](CCCNC(=N)N)NC(=O)[C@H](CCCNC(=N)N)NC(=O)[C@H](CC(C)C)NC(=O)[C@H](Cc1ccccc1)NC(=O)CNC(=O)CNC(=O)[C@@H](N)Cc1ccc(O)cc1)C(=O)N[C@@H](CCCNC(=N)N)C(=O)N1CCC[C@H]1C(=O)N[C@@H](CCCCN)C(=O)N[C@@H](CC(C)C)C(=O)N[C@@H](CCCCN)C(=O)O | ACKR4 (Homo sapiens) | % | -4.85 |
| CSCC[C@H](NC(=O)[C@H](Cc1ccccc1)NC(=O)CNC(=O)CNC(=O)[C@@H](N)Cc1ccc(O)cc1)C(=O)N[C@@H](CCCNC(=N)N)C(=O)N[C@@H](CCCNC(=N)N)C(=O)N[C@H](C(N)=O)C(C)C | ACKR4 (Homo sapiens) | % | -1.88 |

(Q) Any idea what activation was measured for `CC[C@H](C)[C@H](NC(=O)[C@H](CCCNC(=N)N)NC(=O)[C@H](CCCNC(=N)N)NC(=O)[C@H](CC(C)C)NC(=O)[C@H](Cc1ccccc1)NC(=O)CNC(=O)CN)C(=O)N[C@@H](CCCNC(=N)N)C(=O)N1CCC[C@H]1C(=O)N[C@@H](CCCCN)C(=O)N[C@@H](CC(C)C)C(=O)N[C@@H](CCCCN)C(=O)N[C@@H](Cc1c[nH]c2ccccc12)C(=O)N[C@@H](CC(=O)O)C(=O)N[C@@H](CC(N)=O)C(=O)N[C@@H](CCC(N)=O)C(=O)O` ?
(A) -4.71
